SYSTEM_UNDER_TEST: PD-1/PD-L1 (Homo sapiens, UniProt Q9NZQ7)
Construct: made in house; host or cells: HEK293T
Sequence (Q9NZQ7 with tags, fused parts or gaps): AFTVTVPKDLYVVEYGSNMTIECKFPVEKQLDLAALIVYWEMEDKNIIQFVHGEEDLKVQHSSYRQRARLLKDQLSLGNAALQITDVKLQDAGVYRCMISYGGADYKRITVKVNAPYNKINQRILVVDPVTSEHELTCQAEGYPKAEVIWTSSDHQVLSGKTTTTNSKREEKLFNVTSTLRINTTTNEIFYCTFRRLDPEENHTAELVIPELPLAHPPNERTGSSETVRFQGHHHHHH
ASSAY: PD-1/PD-L1 Homogenous Time-Resolved Fluorescence (HTRF) binding assay
CONDITION_CONTEXT: PD-L1-His 10 nM, PD-1-Ig 20 nM; value given as range class; read-out: Range or IC50
# IC50 values compiled below

Challenge: I am curious: what IC50 value has been reported for Cc1c(COc2cc(OCc3cncc(C#N)c3)c(CNC(C)(CO)CO)cc2Cl)cccc1-c1cccc(C(=O)N(C)C)c1C ?
Response given: 10 to 100 nM

----------
SYSTEM_UNDER_TEST: PD-1/PD-L1 (Homo sapiens, UniProt Q9NZQ7)
Construct: made in house; host or cells: HEK293T
ASSAY: PD-1/PD-L1 Homogenous Time-Resolved Fluorescence (HTRF) binding assay
CONDITION_CONTEXT: PD-L1-His 10 nM, PD-1-Ig 20 nM; value given as range class; read-out: Range or IC50
RECORDED_ENDPOINT: IC50

Answered cases to consult:
Cc1c(COc2cc(OCc3cncc(C#N)c3)c(CNC(CO)CO)cc2Cl)cccc1-c1cccc(CN(C)CCN2CCS(=O)(=O)CC2)c1C : 0.21 to 10 nM
CC(=O)NC1CCN(CCCOc2cccc(-c3cccc(COc4cc(OCc5cncc(C#N)c5)c(CN[C@](C)(CO)C(=O)O)cc4Cl)c3C)c2Cl)C1 (stereo partly drawn) : 0.21 to 10 nM

Challenge: I am curious: what IC50 value has been reported for Cc1c(COc2cc(OCc3cncc(C#N)c3)c(CN3CCCC[C@H]3C(=O)O)cc2Cl)cccc1-c1cccc(OCCCN2CCCCC2CC(=O)O)c1C (stereo partly drawn) ?
Response given: 0.21 to 10 nM

Challenge: I am curious: what IC50 value has been reported for Cc1c(COc2cc(OCc3cncc(C#N)c3)c(C(C)N(C)[C@@H](CO)C(=O)O)cc2Cl)cccc1-c1cccc(OCCCN2CC[C@@H](O)C2)c1C (stereo partly drawn) ?
Response given: 0.21 to 10 nM

Challenge: I am curious: what IC50 value has been reported for Cc1c(COc2cc(OCc3cncc(C#N)c3)c(CN3CCCC[C@H]3C(=O)O)cc2Cl)cccc1-c1cccc(OCCCN(C)Cc2ccccn2)c1C ?
Response given: 10 to 100 nM

Challenge: I am curious: what IC50 value has been reported for C=CC(=O)NCCNCc1cc(Cl)c(OCc2cccc(-c3cccc(OCCCN4CC[C@@H](O)C4)c3C)c2C)cc1OCc1cncc(C#N)c1 ?
Response given: 10 to 100 nM

Challenge: I am curious: what IC50 value has been reported for C=CCOc1cc(OCc2cccc(-c3cccc(OCCCN4CC[C@@H](O)C4)c3C)c2Cl)c(Cl)cc1CNC(CO)CO ?
Response given: 0.21 to 10 nM

----------
SYSTEM_UNDER_TEST: PD-1/PD-L1 (Homo sapiens)
Construct: made in house; host or cells: HEK293T
ASSAY: PD-1/PD-L1 Homogenous Time-Resolved Fluorescence (HTRF) binding assay
CONDITION_CONTEXT: PD-L1-His 10 nM, PD-1-Ig 20 nM; value given as range class; read-out: Range or IC50
RECORDED_ENDPOINT: IC50

Answered cases to consult:
Cc1cc(OCc2cccc(-c3cccc(OCCCN4CC[C@@H](O)C4)c3C)c2C)cc(OCc2cncc(C#N)c2)c1CNC(CO)CO : 0.21 to 10 nM
CCN(Cc1cc(Cl)c(OCc2cccc(-c3cccc(OCCCN4CC[C@@H](O)C4)c3Cl)c2C)cc1OCc1cncc(C#N)c1)[C@](C)(CO)C(=O)O : 0.21 to 10 nM
Cc1c(COc2cc(OCc3cncc(C#N)c3)c(CN(C)[C@@](C)(CO)C(=O)O)c(C)c2Cl)cccc1-c1cccc(OCCCN2CC[C@@H](O)C2)c1C : 0.21 to 10 nM
Cc1c(COc2cc(OCc3cncc(C#N)c3)c(CO)cc2Cl)cccc1-c1cccc(OCCCN2CC(N(C)C)C2)c1Cl : 0.21 to 10 nM

Please find the next molecule below.
Challenge: I am curious: what IC50 value has been reported for Cc1c(COc2cc(OCc3cncc(C#N)c3)c(CO)cc2Cl)cccc1-c1cccc(OCCCN2CC[C@@H](O)C2)c1Cl ?
Response given: 0.21 to 10 nM
